measured.quantity: melting point

chemical_smiles=Cc1ccnc(NC(=O)c2ccc3c(c2)nc(Nc2c(Cl)cccc2Cl)n3C)c1 measured_quantity="melting point" measured_result="157 to 159 °C"
chemical_smiles=O=C(Nc1ccccc1C(F)(F)F)c1ccc2[nH]c(Nc3c(Cl)cccc3Cl)nc2c1 measured_quantity="melting point" measured_result="143 to 145 °C"
chemical_smiles=O=C(Nc1ccc(Br)cn1)c1ccc2[nH]c(Nc3c(Cl)cccc3Cl)nc2c1 measured_quantity="melting point" measured_result="183 to 185 °C"
chemical_smiles=Cn1c(Nc2c(Cl)cccc2Cl)nc2cc(C(=O)Nc3cccc(Cl)c3)ccc21 measured_quantity="melting point" measured_result="175 to 176 °C"
chemical_smiles=Cc1c(Cl)cccc1NC(=O)c1ccc2[nH]c(Nc3c(Cl)cccc3Cl)nc2c1 measured_quantity="melting point" measured_result="267 to 269 °C"

====

Molecular target: recombinant human mPGES-1 (Homo sapiens, UniProt O14684)
Construct: made in house; host or cells: Rosetta E. coli (microsomal/membrane fraction)
Sequence (O14684 whole entry): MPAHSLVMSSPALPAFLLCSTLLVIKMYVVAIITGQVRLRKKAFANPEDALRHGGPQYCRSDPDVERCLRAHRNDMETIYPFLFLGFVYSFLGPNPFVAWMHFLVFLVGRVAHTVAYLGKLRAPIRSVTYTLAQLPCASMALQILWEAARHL
Experiment: mPGES-1 inhibition test (microsomes, PGH2 substrate, HTRF detection of PGE2)
Assay type: biochemical
Conditions: inhibition of mPGES-1 at 10 μM
measured.quantity: inhibition at 10 µM (%)

compound=Cn1c(Nc2c(Cl)cccc2Cl)nc2cc(C(=O)Nc3cc(N4CCCC4)ccn3)c(F)cc21 measured_result=84
compound=COc1cc2[nH]c(Nc3c(Cl)cc(F)cc3Cl)nc2cc1C(=O)Nc1ccc(Br)cc1 measured_result=100
compound=O=C(NCCc1cccnc1)c1ccc2[nH]c(Nc3c(Cl)cccc3Cl)nc2c1 measured_result=91
compound=Cn1c(Nc2c(Cl)cccc2Cl)nc2cc(C(=O)Nc3ccc(Cl)cn3)ccc21 measured_result=99
compound=COc1ccc(NC(=O)c2ccc3nc(Nc4c(Cl)cccc4Cl)[nH]c3c2)nc1 measured_result=92
compound=Cc1ccccc1Nc1nc2cc(C(=O)Nc3ccccc3)ccc2[nH]1 measured_result=98
compound=Cn1c(Nc2c(Cl)cccc2Cl)nc2cc(C(=O)Nc3cc(C(F)(F)F)ccn3)c(F)cc21 measured_result=93
compound=Cc1cc(NC(=O)c2ccc3[nH]c(Nc4c(Cl)cccc4Cl)nc3c2)ncc1F measured_result=94
compound=O=C(Nc1cccc(C(F)(F)F)n1)c1ccc2[nH]c(Nc3c(Cl)cccc3Cl)nc2c1 measured_result=100
compound=CN(C)c1cc(C(F)(F)F)cc(NC(=O)c2cc3nc(Nc4c(Cl)cc(F)cc4Cl)[nH]c3cc2OCC(F)(F)F)n1 measured_result=82
compound=Cc1ccnc(NC(=O)c2ccc3c(c2)nc(Nc2c(Cl)cccc2Cl)n3C)c1 measured_result=95
compound=O=C(NCC1CCCCC1)c1ccc2[nH]c(Nc3c(Cl)cccc3Cl)nc2c1 measured_result=100
compound=O=C(Nc1cccc(F)c1)c1ccc2[nH]c(Nc3c(Cl)cccc3Cl)nc2c1 measured_result=100
compound=O=C(NC1Cc2ccccc2C1)c1cc2nc(Nc3c(Cl)cccc3Cl)[nH]c2cc1Cl measured_result=90
compound=O=C(Nc1cc(Cl)ccc1Cl)c1ccc2[nH]c(Nc3c(Cl)cccc3Cl)nc2c1 measured_result=100
compound=O=C(Nc1ccc(Br)cc1)c1cc2nc(Nc3c(Cl)cc(F)cc3Cl)[nH]c2cc1OCC(F)(F)F measured_result=100
compound=O=C(Nc1nc2c(s1)CCC2)c1ccc2[nH]c(Nc3c(Cl)cccc3Cl)nc2c1 measured_result=90
compound=O=C(NC1CCC(F)(F)CC1)c1cc2[nH]c(Nc3c(Cl)cccc3Cl)nc2cc1F measured_result=100
compound=Cn1c(Nc2c(F)cccc2Cl)nc2cc(C(=O)N[C@H]3CC[C@H](C(F)F)CC3)c(F)cc21 measured_result=100
compound=O=C(Nc1ccc(Cl)c(F)c1)c1cc2nc(Nc3c(Cl)cccc3Cl)[nH]c2cc1Cl measured_result=93
compound=Cn1c(Nc2cc(Cl)ccc2Cl)nc2cc(C(=O)Nc3ccc(Br)cc3)ccc21 measured_result=100
compound=Cc1cccc(NC(=O)c2ccc3c(c2)nc(Nc2c(Cl)cccc2Cl)n3C)n1 measured_result=95
compound=Cn1c(Nc2c(Cl)cccc2Cl)nc2cc(C(=O)NC3CC(C)(C)C3)c(F)cc21 measured_result=99
compound=Cc1cnc(NC(=O)c2cc3nc(Nc4c(Cl)cccc4Cl)n(C)c3cc2F)cc1Cl measured_result=98
compound="O=C(NC1CCc2ccccc2C1)c1ccc2nc(Nc3c(Cl)cccc3Cl)[nH]c2c1 (stereo not drawn)" measured_result=97
compound=Cc1cccc(C)c1Nc1nc2cc(C(=O)Nc3ccccc3)ccc2[nH]1 measured_result=100
compound=O=C(NC1CCC(F)(F)CC1)c1ccc2nc(Nc3c(Cl)cccc3Cl)[nH]c2c1 measured_result=94
compound=Cc1cc(Cl)cc(Cl)c1Nc1nc2cc(C(=O)Nc3ccc(Br)cc3)ccc2n1C measured_result=100
compound=Cn1c(Nc2c(Cl)cccc2Cl)nc2cc(C(=O)NCc3ccncc3)ccc21 measured_result=61
compound="Cn1c(Nc2c(Cl)cccc2Cl)nc2cc(C(=O)NC3CCC(C(F)(F)F)CC3)ccc21 (stereo not drawn)" measured_result=100
compound=N#Cc1ccc(NC(=O)c2ccc3[nH]c(Nc4c(Cl)cccc4Cl)nc3c2)nc1 measured_result=89
compound=CCCC[C@H](C)NC(=O)c1cc2nc(Nc3c(Cl)cccc3Cl)[nH]c2cc1F measured_result=100
compound=O=C(Nc1cccc(Cl)c1)c1cc2nc(Nc3c(Cl)ccc(Cl)c3F)[nH]c2cc1F measured_result=100
